Taken from ChEMBL document CHEMBL1125457.

Biological target: O-acyltransferase (Oryctolagus cuniculus, UniProt G1SFD9)
Sequence (G1SFD9 1-524): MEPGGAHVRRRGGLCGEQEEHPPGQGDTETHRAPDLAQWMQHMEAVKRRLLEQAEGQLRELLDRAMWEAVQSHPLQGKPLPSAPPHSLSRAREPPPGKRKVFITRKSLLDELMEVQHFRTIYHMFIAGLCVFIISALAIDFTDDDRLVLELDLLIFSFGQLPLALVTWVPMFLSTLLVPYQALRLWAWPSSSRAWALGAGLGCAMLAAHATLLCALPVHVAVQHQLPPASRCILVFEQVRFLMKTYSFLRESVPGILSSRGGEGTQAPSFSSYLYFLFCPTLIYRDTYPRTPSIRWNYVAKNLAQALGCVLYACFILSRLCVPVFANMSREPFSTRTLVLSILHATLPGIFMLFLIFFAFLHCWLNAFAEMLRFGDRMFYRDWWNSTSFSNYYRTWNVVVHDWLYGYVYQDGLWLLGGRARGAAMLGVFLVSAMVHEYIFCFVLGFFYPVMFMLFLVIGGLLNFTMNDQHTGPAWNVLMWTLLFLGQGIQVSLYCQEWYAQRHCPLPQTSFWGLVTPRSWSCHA
Assay: Tested in vitro to inhibit Acyl coenzyme A:cholesterol acyltransferase in intestinal microsomes isolated from cholesterol-fed rabbits.
Design: species or system Intestine
pIC50: −log10 of the molar value.
assay-readout: pIC50

Some compounds with known pIC50 results, for comparison:
                                   compound                             tested_target  assay_readout  result
0  CCCCCCCC/C=C/CCCCCCCC(=O)Nc1c(OC)cc(OC)cc1OC  O-acyltransferase (Oryctolagus cuniculus, UniProt G1SFD9)          pIC50    7.29
1  CCCCCCCCCCC(C)C(=O)Nc1c(OC)cc(OC)cc1OC (configuration not stated)  O-acyltransferase (Oryctolagus cuniculus, UniProt G1SFD9)          pIC50    7.05

[I] CCCCCCCCCCC(CC)C(=O)Nc1c(OC)cc(OC)cc1OC (configuration not stated)
[II] CCCCCCCC/C=C/CCCCCCCC(=O)Nc1ccc(OC)c(OC)c1
[III] CCCCCCCC/C=C\CCCCCCCC(=O)Nc1c(C)cccc1C
Ranking field: pIC50; order: falling. Answer format: the labels, in the requested order.
III, I, II

[P] CCCCCCCCCC(C)(C)C(=O)Nc1c(OC)cc(OC)cc1OC
[Q] CCCCCCCC/C=C/CCCCCCCC(=O)Nc1c(F)cc(F)cc1F
Of P and Q , which carries the smaller reported pIC50 figure? Choose, then provide that item's label.
Q
(Q: 5.20, P: 7.23)
